Sourced from patent US20260250381A1

Biological target: T1, human TREM2 (human) (UniProt Q9NZC2)
T1 sequence (looked up): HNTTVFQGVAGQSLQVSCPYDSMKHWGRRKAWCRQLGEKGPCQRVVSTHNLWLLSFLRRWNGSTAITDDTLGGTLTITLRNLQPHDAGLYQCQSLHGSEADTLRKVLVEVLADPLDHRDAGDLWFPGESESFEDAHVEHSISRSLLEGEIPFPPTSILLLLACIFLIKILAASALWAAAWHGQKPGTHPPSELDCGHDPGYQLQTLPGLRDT
Assay: 1st screen, 10 nM Ab
measurement kind: Binding Signal (fold over 6E7 parental antibody)

[
  {
    "binder": "6E7 variant V37 (antibody, V domains shown) VH: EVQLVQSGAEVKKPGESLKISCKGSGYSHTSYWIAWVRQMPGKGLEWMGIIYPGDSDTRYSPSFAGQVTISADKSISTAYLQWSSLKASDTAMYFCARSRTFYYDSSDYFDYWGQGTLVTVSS VL: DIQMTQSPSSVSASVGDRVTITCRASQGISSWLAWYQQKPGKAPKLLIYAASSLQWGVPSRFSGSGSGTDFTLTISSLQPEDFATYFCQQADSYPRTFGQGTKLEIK",
    "observed measurement": "3.46 fold"
  },
  {
    "binder": "6E7 variant V60 (antibody, V domains shown) VH: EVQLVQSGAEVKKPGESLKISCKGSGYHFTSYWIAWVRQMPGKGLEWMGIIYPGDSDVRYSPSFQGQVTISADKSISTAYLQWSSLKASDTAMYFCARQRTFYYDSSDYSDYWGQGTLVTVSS VL: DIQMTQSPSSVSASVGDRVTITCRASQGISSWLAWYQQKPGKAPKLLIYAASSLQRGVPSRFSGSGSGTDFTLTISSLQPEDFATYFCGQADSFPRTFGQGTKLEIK",
    "observed measurement": "3.26 fold"
  },
  {
    "binder": "6E7 variant V48 (antibody, V domains shown) VH: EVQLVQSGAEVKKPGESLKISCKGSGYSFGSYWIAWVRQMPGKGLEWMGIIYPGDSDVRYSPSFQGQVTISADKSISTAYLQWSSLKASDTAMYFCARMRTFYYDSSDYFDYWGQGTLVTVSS VL: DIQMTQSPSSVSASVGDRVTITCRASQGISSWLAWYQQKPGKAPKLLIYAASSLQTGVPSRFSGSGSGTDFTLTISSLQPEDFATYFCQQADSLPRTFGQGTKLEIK",
    "observed measurement": "2.42 fold"
  },
  {
    "binder": "6E7 variant V65 (antibody, V domains shown) VH: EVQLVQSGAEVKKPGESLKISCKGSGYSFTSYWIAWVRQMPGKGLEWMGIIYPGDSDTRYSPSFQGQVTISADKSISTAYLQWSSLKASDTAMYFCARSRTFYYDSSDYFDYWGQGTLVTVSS VL: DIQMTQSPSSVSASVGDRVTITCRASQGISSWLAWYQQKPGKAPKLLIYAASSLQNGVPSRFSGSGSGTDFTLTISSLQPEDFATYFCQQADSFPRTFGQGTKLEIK",
    "observed measurement": "2.05 fold"
  },
  {
    "binder": "6E7 variant V61 (antibody, V domains shown) VH: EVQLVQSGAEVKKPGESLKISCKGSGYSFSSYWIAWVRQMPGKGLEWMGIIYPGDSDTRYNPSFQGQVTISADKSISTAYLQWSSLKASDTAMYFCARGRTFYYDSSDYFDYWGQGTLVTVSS VL: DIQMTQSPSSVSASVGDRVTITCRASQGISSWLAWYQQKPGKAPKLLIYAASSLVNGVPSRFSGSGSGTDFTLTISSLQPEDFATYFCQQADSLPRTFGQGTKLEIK",
    "observed measurement": "5.08 fold"
  }
]
